- test_target: T1, Human OSM (human, UniProt P13725 26-221)
- T1 construct: Recombinant human OSM; also called hOSM; human Oncostatin M
- T1 sequence: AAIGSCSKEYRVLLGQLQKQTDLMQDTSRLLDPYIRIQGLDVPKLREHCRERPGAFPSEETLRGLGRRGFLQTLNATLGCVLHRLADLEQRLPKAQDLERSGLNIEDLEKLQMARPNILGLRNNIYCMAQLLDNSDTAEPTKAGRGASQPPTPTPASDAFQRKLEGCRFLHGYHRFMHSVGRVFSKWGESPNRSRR
- measurement_notes: BIAcore kinetics, transfection supernatant
measured_attribute: pKd
Give only the number. pKd is defined as minus log10 of concentration in molar units.

Solved cases below.
binder	pKd
Humanised 10G8 H0L3 (antibody, V domains shown) VH: EVQLVESGGGLVQPGGSLRLSCAASGFTFSNYAMSWVRQAPGKGLEWVATISDGGSFTYYLDNVRGRFTISRDNAKNSLYLQMNSLRAEDTAVYYCARDVGHTTFWYFDVWGRGTLVTVSS VL: DIVMTQSPDSLAVSLGERATINCRASKSVSAAGYNFMHWYQQKPGQPPKLLIYYASNLESGVPDRFSGSGSGTDFTLTISSLQAEDVAVYYCLHSREFPFTFGGGTNVEIK	9.41
10G8 chimaera (antibody, human IgG1, kappa, V domains shown, Mouse V regions on human gamma 1 wild type and human kappa constant regions; the entries called VH/VL domain (chimera) are full chains; also called 10G8 chimera; 10G8 Chimæra) VH: EMQLVESGEGLVEPGGSLKLSCAASGFTFSNYAMSWVRQTPEKSLEWVATISDGGSFTYYLDNVRGRFTISRDNAKNNLYLQMSHLKSDDTAMYYCARDVGHTTFWYFDVWGSGTLVTVSS VL: DIVLTQSPVFLVVSLGQRATISCRASKSVSAAGYNFMHWYQQKPGQPPKVLIKYASNLESGVPARFSGSGSGTDFTLNIHPVEEEDAVTYYCLHSREFPFTFGGGTNLEIKR	9.39

Query: # query: pKd of entry Humanised 10G8 H1L3 (antibody, V domains shown) VH: EMQLVESGGGLVQPGGSLRLSCAASGFTFSNYAMSWVRQAPGKGLEWVATISDGGSFTYYLDNVRGRFTISRDNAKNSLYLQMNSLRAEDTAVYYCARDVGHTTFWYFDVWGRGTLVTVSS VL: DIVMTQSPDSLAVSLGERATINCRASKSVSAAGYNFMHWYQQKPGQPPKLLIYYASNLESGVPDRFSGSGSGTDFTLTISSLQAEDVAVYYCLHSREFPFTFGGGTNVEIK
Reply: 9.46
